target: T1, AXL on A431 cells (Homo sapiens, UniProt P30530); test: Antibody binding to A431 cells with or without Gas6 pre-incubation; conditions: without Gas6 pre-incubation
T1 construct: AXL-positive A431 cells were incubated; endogenous in cells; host or cells: A431
Quick reference for Antibody binding to A431 cells: EC50 w/o Gas6 (µg/mL) mean (s.d.) among some molecules
measure-name: Antibody binding to A431 cells: EC50 w/o Gas6 (µg/mL) mean (s.d.)

| molecule | test-value |
| --- | --- |
| IgG1-AXL-148: AXL-specific human IgG1,κ antibody, VH SEQ ID NO:5, VL SEQ ID NO:6, Ig2 domain binding (antibody, listed as Homo sapiens, V domains shown) VH: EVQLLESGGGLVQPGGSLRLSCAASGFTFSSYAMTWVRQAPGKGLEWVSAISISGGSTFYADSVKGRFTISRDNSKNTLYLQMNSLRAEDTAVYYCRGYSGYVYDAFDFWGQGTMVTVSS VL: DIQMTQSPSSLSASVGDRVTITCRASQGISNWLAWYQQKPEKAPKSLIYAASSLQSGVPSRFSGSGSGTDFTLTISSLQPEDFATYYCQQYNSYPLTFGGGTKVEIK | 0.11 (0.13) µg/mL |
| IgG1-AXL-183: AXL-specific human IgG1,κ antibody, VH SEQ ID NO:16, VL SEQ ID NO:18, FN1 domain binding (antibody, listed as Homo sapiens, V domains shown) VH: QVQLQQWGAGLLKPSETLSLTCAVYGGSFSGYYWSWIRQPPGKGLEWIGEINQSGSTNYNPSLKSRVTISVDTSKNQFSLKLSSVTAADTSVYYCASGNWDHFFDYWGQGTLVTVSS VL: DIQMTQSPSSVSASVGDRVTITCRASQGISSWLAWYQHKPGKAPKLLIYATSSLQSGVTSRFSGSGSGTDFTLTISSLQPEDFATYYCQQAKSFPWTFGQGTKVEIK | 0.69 (0.72) µg/mL |
| IgG1-AXL-733: AXL-specific human IgG1,κ antibody, VH SEQ ID NO:34, VL SEQ ID NO:35, FN1 domain binding (antibody, listed as Homo sapiens, V domains shown) VH: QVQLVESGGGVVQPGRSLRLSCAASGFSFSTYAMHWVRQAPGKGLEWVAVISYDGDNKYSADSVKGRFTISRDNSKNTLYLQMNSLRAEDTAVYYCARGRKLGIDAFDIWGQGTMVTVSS VL: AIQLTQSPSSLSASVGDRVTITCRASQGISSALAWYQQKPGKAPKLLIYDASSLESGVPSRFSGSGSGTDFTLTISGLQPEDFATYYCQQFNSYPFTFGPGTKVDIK | 0.49 (0.51) µg/mL |
| IgG1-AXL-726: AXL-specific human IgG1,κ antibody, VH SEQ ID NO:31, VL SEQ ID NO:33, FN2 domain binding (antibody, listed as Homo sapiens, V domains shown) VH: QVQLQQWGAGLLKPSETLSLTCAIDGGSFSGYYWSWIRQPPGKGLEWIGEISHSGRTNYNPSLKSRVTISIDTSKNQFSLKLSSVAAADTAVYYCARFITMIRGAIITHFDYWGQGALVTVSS VL: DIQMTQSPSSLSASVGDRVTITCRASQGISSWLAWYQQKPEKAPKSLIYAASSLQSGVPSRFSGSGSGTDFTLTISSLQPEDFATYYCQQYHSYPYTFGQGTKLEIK | 0.32 (0.35) µg/mL |
| IgG1-AXL-511: AXL-specific human IgG1,κ antibody, VH SEQ ID NO:136, VL SEQ ID NO:140, Ig2 domain binding (antibody, listed as Homo sapiens, V domains shown) VH: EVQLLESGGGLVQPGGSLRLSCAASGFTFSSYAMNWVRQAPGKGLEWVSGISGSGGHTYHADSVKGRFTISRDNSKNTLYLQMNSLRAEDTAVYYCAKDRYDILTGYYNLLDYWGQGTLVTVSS VL: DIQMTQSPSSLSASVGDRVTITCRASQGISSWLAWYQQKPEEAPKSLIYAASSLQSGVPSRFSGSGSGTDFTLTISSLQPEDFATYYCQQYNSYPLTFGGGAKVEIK | 0.12 (0.11) µg/mL |
